Target System: SSTR4 (Homo sapiens, UniProt P31391)
Construct: host or cells: CHO-K1
Sequence (P31391 whole entry): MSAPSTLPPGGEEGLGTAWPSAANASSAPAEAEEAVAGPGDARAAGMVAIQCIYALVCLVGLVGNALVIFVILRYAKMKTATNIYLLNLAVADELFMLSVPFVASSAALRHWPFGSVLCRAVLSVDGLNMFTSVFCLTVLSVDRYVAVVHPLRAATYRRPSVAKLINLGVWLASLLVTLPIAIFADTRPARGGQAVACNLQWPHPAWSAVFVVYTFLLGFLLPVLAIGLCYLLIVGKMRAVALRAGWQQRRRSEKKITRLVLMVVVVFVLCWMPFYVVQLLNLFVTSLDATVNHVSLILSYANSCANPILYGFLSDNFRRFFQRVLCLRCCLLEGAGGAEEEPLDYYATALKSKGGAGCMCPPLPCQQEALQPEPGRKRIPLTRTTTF
Test Details: Inhibition of forskolin stimulated cAMP in CHO-K1 cells overexpressing SSTR4
Type: cell-based
Measurement Context: read-out: SSTR4 Activity pEC50 (converted)
Parameter Measured: EC50 (nM)

// worked examples, EC50 included
Compound	EC50 (nM)
CN1CCC[C@H]1CC(=O)NC(C)(C)c1cccc(Cl)c1Cl [Example 80]	25.1
CC(C)(NC(=O)CCN1CCC1)c1cccc(F)c1 [Example 163]	25.1
CN1CCC[C@@H]1CC(=O)NC(C)(C)[C@@H]1CCc2ccccc2O1 (single isomer, unassigned) [Example 131]	50.1
O=C(CCN1CCC1)NC(c1cccc(F)c1)C(F)(F)F (single isomer, unassigned) [Example 193]	15.8
CCN1CCCC1CC(=O)NC(C)(C)COc1ncccc1C (centres unmarked) [Example 62]	25.1
COc1ccc(C(C)(C)NC(=O)[C@H](C)CN2CCC2)cc1 (single isomer, unassigned) [Example 138]	12.6
C[C@H](CN1CCC1)C(=O)NC(C)(C)c1cccc(F)c1 (single isomer, unassigned) [Example 152]	1000
CN1CCC[C@H]1CC(=O)NC(C)(C)c1cccc(F)c1F [Example 82]	316
CN1CCC[C@@H]1CC(=O)NC(C)(C)c1nccc2ccccc12 [Example 16]	12.6
CN1CCC[C@H]1CC(=O)NC(C)(C)COc1cc(Cl)c(F)cn1 [Example 105]	794

P = Cc1cccc2c(C(C)(C)NC(=O)C[C@@H]3CCCN3C)nccc12 [Example 18]
Q = CN1CCC[C@H]1CC(=O)NC(C)(C)COc1ncccc1C(F)(F)F [Example 48]
R = CC[C@H](CN1CCC1)C(=O)NC(C)(C)c1ccc(F)cc1 (single isomer, unassigned) [Example 182]
S = Cc1cccc(OCC(C)(C)NC(=O)C[C@@H]2CCCN2C)n1 [Example 104]
### Prompt Would you mind ranking these compounds by ascending EC50? Write out the labels following the order that was asked for.
### Response R, P, Q, S
(R: 1.58 nM, P: 7.94 nM, Q: 25.1 nM, S: 100 nM)

I = CC[C@@H](CN1CCC1)C(=O)N[C@H](c1cccc(F)c1)C(F)F [Example 195]
II = CN1CCC[C@H]1CC(=O)NC(C)(C)c1nn(C)c2ccccc12 [Example 4]
### Prompt Parameter metric = EC50. Return the lower-valued option from I and II . Kindly give the label for the entry you pick.
### Response I

This collection of values is drawn from patent US20230150981A1.
